Form field: Kd (one value per entry).
measurement_target: LEDGF/p52 (UniProt O75475-2 1-333)
protocol_description: NMR titration
Where no end group is shown, it is not given here. Me3 = trimethyl-lysine (Kme3); Me2 = dimethyl-lysine (Kme2)

binder	unit_of_measure	Kd
SAPATGGVK(Me2)KPHRY [histone H3 peptide SAPATGGVKme2KPHRY]	mM	2.4
SAPATGGVKKPHRY [histone H3 peptide SAPATGGVKKPHRY, unmodified]	mM	6
SAPATGGVK(Me3)KPHRY [histone H3 peptide SAPATGGVKme3KPHRY]	mM	2.7
SAPATGGVK(Me)KPHRY [histone H3 peptide SAPATGGVKme1KPHRY]	mM	5.4
